These measurements were taken from PubChem BioAssay (Tox21).

assay: qHTS assay to identify small molecule antagonists of the androgen receptor (AR) signaling pathway using the MDA cell line - cell viability counter screen (AID 743041; note: nearly all actives have a fitted effect of over 45% in size; note: potency is the fitted concentration of half-maximal effect); settings: MDA-kb2 viability, CellTiter-Fluor, 16 h, cells co-treated with R1881 androgen agonist; series mostly up to 70.3 µM
Results filed as inconclusive are left out. Active and inactive are the calls of the source. Calls come from the whole dose curve; as a rule, active = well fitted cell-killing curve with a large enough effect in the repeat runs; inconclusive = weak or mixed curves, or effect the other way; inactive = flat fitted curve, though single readings scatter.
observed.property: Potency

1) O=c1c2ccccc2c(=O)c2c1cc(Cl)c1[nH]c3c([nH]c12)c(Cl)cc1c(=O)c2ccccc2c(=O)c13; inactive
2) Cc1c([N+](=O)[O-])cc2c(c1[N+](=O)[O-])C(C)(C)CC2(C)C; inactive
3) CCC[CH2][Sn]([CH2]CCC)([CH2]CCC)[O][Sn]([CH2]CCC)([CH2]CCC)[CH2]CCC; 1.5 µM (active)
4) CN(C)CCc1c[nH]c2ccccc12; inactive
5) Oc1ccc2[nH]cc(CCCCN3CC=C(c4ccccc4)CC3)c2c1; inactive

Now for a further molecule.
INPUT: What Potency value was documented for this molecule, CNC(=O)O/N=C(\C)C(C)S(C)(=O)=O (stereo unspecified) ?
OUTPUT: inactive

###

assay: qHTS assay to identify small molecule antagonists of the estrogen related receptor signaling pathway with the pleiotropic PPARgamma coactivator (PGC) from Tox21 10K library - cell viability counter screen (AID 1224840); details: PGC/ERR reporter cells viability, CellTiter-Fluor, 17.5 h; series mostly up to 92.4 µM; note: nearly all actives have a fitted effect of over 40% in size
Results filed as inconclusive are left out. Calls of active or inactive are those of the source. Calls come from the whole dose curve; as a rule, active = well fitted cell-killing curve with a large enough effect in the repeat runs (not every such curve was filed as active); inconclusive = weak or mixed curves, or effect the other way; inactive = no such curve, though single readings can be large or run the other way.
Log the outcome using a class from yes (active), no (inactive)

INPUT: Tell me the assay call for `C[C@]12C/C(=C/O)C(=O)C[C@@H]1CC[C@@H]1[C@@H]2CC[C@@]2(C)[C@H]1CC[C@]2(C)O` please.
OUTPUT: no

INPUT: Please share the test call associated with `Clc1ccc(C(c2ccc(Cl)cc2)C(Cl)Cl)cc1` .
OUTPUT: no

INPUT: What outcome does the record of this test show for `O=[N+]([O-])c1ccc(CCl)cc1` ?
OUTPUT: no

INPUT: Recorded test call requested for `CC(=O)[O][Pb]([c]1ccccc1)([c]1ccccc1)[c]1ccccc1`
OUTPUT: yes

INPUT: Look up the recorded call for `N#CCCl` in this test.
OUTPUT: no

INPUT: Dear all, I need the recorded test outcome for `CC[C@]1(O)CC[C@H]2[C@@H]3CCC4=CCCC[C@@H]4[C@H]3CC[C@@]21C` , thank you.
OUTPUT: no

INPUT: Assay result, entry `CCN(CC)CCN1C(=O)CN=C(c2ccccc2F)c2cc(Cl)ccc21` — outcome?
OUTPUT: no

INPUT: Outcome logged for CC(C)C(Br)C(=O)NC(N)=O (stereo not given) in this assay:
OUTPUT: no

###

biological target: Peroxisome proliferator-activated receptor gamma (Homo sapiens) (UniProt P37231); test: qHTS assay to identify small molecule agonists of the peroxisome proliferator-activated receptor gamma (PPARg) signaling pathway (AID 743094); settings: HEK293H PPARg-UAS-bla, beta-lactamase FRET ratio, 17 h; series mostly up to 57 µM
Sequence (P37231 whole entry, looked up): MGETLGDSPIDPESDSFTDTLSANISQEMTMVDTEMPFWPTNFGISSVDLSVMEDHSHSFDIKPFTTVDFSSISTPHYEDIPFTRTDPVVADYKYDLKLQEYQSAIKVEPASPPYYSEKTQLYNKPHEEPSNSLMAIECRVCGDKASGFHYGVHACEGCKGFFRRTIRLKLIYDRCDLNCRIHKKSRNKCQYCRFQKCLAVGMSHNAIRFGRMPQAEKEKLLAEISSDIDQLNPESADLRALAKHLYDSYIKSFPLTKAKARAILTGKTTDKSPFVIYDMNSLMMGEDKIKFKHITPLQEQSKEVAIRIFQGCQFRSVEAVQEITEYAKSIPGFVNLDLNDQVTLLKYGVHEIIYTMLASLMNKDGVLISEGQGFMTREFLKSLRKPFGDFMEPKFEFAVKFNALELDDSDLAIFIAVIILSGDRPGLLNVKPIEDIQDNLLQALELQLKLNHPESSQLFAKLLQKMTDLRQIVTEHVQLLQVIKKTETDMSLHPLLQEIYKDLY
Inconclusive results are not listed. Calls of active or inactive are those of the source. Calls follow the shape of the dose curve; as a rule, active = well fitted activation curve with a large enough effect in the signal ratio in the repeat runs (not every such curve was filed as active); inconclusive = weak or mixed curves, or effect the other way; inactive = no such curve, though single readings can be large or run the other way; the % refers to the signal ratio.
Your reply should match one of these outcome classes. active, inactive

Example entries and their recorded answers appear below.
1. CCN(CC)CCc1c[nH]c2ccccc12; inactive
2. CCC(C)c1cccc(C(C)CC)c1O (stereo unspecified); inactive
3. CCC(C)Nc1c([N+](=O)[O-])cc(C(C)(C)C)cc1[N+](=O)[O-] (stereo unspecified); inactive
4. CN/C(=N\[N+](=O)[O-])NCc1cnc(Cl)s1; inactive
5. CC(C)=CC1C(C(=O)OC(C#N)c2cccc(Oc3ccccc3)c2)C1(C)C (stereo unspecified); inactive
6. COc1ccc2[nH]cc(CCN(C(C)C)C(C)C)c2c1; inactive
7. Cc1ccc(C)c2ccccc12; inactive
8. CCN(CC)CCN1C(=O)CN=C(c2ccccc2F)c2cc(Cl)ccc21; inactive
9. Clc1ccc(C(c2ccc(Cl)cc2)C(Cl)Cl)cc1; inactive
10. Brc1ccc(Oc2ccc(Br)cc2Br)c(Br)c1; inactive

INPUT: What outcome does the record of this test show for `CC[C@]1(O)CC[C@H]2[C@@H]3CCC4=CCCC[C@@H]4[C@H]3CC[C@@]21C` ?
OUTPUT: inactive

INPUT: Look up the recorded call for `COc1ccc2c3c1O[C@H]1[C@H](O)CC[C@H]4[C@@H](C2)N(C)CC[C@@]341` in this test.
OUTPUT: inactive

INPUT: What outcome does the record of this test show for `CC1=C2C[C@H]3[C@@H](CC=C4C[C@@H](O)CC[C@@]43C)[C@@H]2CC[C@]12O[C@@H]1C[C@H](C)CN[C@H]1[C@H]2C` ?
OUTPUT: inactive

INPUT: Lab log entry: `O=NN(CCO)CCO` — outcome as called in the assay?
OUTPUT: inactive

INPUT: // param item: `ClCBr` ; yields the recorded call
OUTPUT: inactive

INPUT: Tell me the recorded outcome of this test for `c1csc(-c2ccc(-c3cccs3)s2)c1` .
OUTPUT: active

INPUT: Write down the call the test reported for this compound. Item: `c1ccc2nc(N3CCNCC3)ccc2c1`
OUTPUT: inactive

INPUT: # lookup: test call for O=S1(=O)OCC2C(CO1)C1(Cl)C(Cl)=C(Cl)C2(Cl)C1(Cl)Cl (stereo unspecified)
OUTPUT: inactive

INPUT: Dear all, I need the recorded test outcome for `S=C=NCCc1ccccc1` , thank you.
OUTPUT: inactive

INPUT: Just curious, what result did `N#Cc1sc2c(=O)c3ccccc3c(=O)c=2sc1C#N` get here?
OUTPUT: inactive

INPUT: What is the recorded call for this compound in the test? `Clc1ccc(C(Cl)(Cl)Cl)cc1Cl`
OUTPUT: inactive

###

assay: qHTS assay for small molecules that induce genotoxicity in human embryonic kidney cells expressing luciferase-tagged ATAD5 - cell viability (AID 651634); conditions: HEK293T ATAD5-luc cells viability, CellTiter-Fluor, 15.5 h; series mostly up to 83.3 µM; note: nearly all actives have a fitted effect of over 25% in size
Records with an inconclusive call do not appear. The source made the active and inactive calls. Calls follow the shape of the full dose curve.
// classify into active, inactive

A selection of reference data follows.
1. CCN(CC)Cc1nccn1-c1ccc([N+](=O)[O-])cc1C(=O)c1ccccc1Cl; inactive
2. ClCBr; inactive
3. CCCCCCC[CH2][Sn]([Cl])([Cl])[CH2]CCCCCCC; inactive
4. [Cl][Hg][c]1ccccc1; active

INPUT: Per the records of this test, what outcome belongs to `CC(C)N(C(=O)SC/C(Cl)=C/Cl)C(C)C` ?
OUTPUT: active

INPUT: Write down the call the test reported for this molecule. Item: `CC(=O)[O-].CC(=O)[O-].O.O.[Zn+2]`
OUTPUT: inactive

INPUT: Per the assay record, what outcome was assigned to CCOP(=S)(OCC)SC(CCl)N1C(=O)c2ccccc2C1=O (configuration not stated) ?
OUTPUT: inactive

###

assay: qHTS assay to identify small molecule antagonists of the estrogen related receptor (ERR) signaling pathway from Tox21 library (AID 1224848); settings: ERR reporter cell line, luciferase antagonist mode, 18 h; series mostly up to 92.4 µM; note: nearly all actives have a fitted effect of over 50% in size; note: potency is the fitted concentration of half-maximal effect
Results filed as inconclusive are left out. Active and inactive are the calls of the source. Calls come from the whole dose curve; as a rule, active = well fitted inhibition curve with a large enough effect in the repeat runs; inconclusive = weak or mixed curves; inactive = no such curve, though single readings can be large or run the other way.
observed.property: Potency

1) CNC(=O)O/N=C(\C)C(C)S(C)(=O)=O (configuration not stated); inactive
2) Oc1cc(Cl)cc(Cl)c1; 61.8 µM (active)
3) CCCCON=O; inactive
4) C=CC(=O)[O][Sn]([CH2]CCC)([CH2]CCC)[CH2]CCC; 1.37 µM (active)
5) CC(=O)[O][Pb]([c]1ccccc1)([c]1ccccc1)[c]1ccccc1; 0.545 µM (active)

INPUT: Endpoint output: Potency of `Oc1ccc2[nH]cc(CCCCN3CC=C(c4ccccc4)CC3)c2c1` . Value?
OUTPUT: 29.8 µM (active)

INPUT: If you can, please state the reported Potency value of `CN1CCc2cc(Cl)c(O)cc2[C@H]2c3ccccc3CC[C@@H]21` .
OUTPUT: inactive

###

assay: qHTS assay for identifying genotoxic compounds that show differential cytotoxicity against isogenic chicken DT40 cell lines with known DNA damage response pathways - Rev3 mutant cell line (AID 743014); conditions: chicken DT40 Rev3-/- viability, CellTiter-Glo, 40 h; series mostly up to 68.4 µM; note: nearly all actives have a fitted effect of over 55% in size
Inconclusive results are not listed. Activity calls are given as the source filed them. The call rests on the fitted dose curve; in most records, active means well fitted cell-killing curve with a large enough effect in the repeat runs; inconclusive means weak or mixed curves, or effect the other way; inactive means no such curve, though single readings can be large or run the other way.
Pick one and only one: t = active, f = inactive

A selection of reference data follows.
1) Brc1cccc(-c2ccccc2)c1; f
2) ClSC(Cl)(Cl)Cl; f
3) CCCCCON=O; f

INPUT: # outcome recorded in this test, key = `CCOP(=O)(Sc1ccccc1)Sc1ccccc1`
OUTPUT: f

INPUT: Recorded test outcome, item `CC1=C2C[C@H]3[C@@H](CC=C4C[C@@H](O)CC[C@@]43C)[C@@H]2CC[C@]12O[C@@H]1C[C@H](C)CN[C@H]1[C@H]2C`
OUTPUT: t

INPUT: Hi, sorry to bother you, what did the test record for `O=C(NC(=O)c1c(F)cccc1F)Nc1ccc(Oc2ccc(C(F)(F)F)cc2Cl)cc1F` ?
OUTPUT: t
